Biological target: human AspH (His6-AspH315–758) (Homo sapiens)
Construct: N-Terminally His6-tagged human AspH315–758 (His6-AspH315–758) was produced in Escherichia coli BL21 (DE3) cells; made in house; host or cells: Escherichia coli BL21 (DE3), pET-28a(+) vector
Sequence (Q12797 315-758): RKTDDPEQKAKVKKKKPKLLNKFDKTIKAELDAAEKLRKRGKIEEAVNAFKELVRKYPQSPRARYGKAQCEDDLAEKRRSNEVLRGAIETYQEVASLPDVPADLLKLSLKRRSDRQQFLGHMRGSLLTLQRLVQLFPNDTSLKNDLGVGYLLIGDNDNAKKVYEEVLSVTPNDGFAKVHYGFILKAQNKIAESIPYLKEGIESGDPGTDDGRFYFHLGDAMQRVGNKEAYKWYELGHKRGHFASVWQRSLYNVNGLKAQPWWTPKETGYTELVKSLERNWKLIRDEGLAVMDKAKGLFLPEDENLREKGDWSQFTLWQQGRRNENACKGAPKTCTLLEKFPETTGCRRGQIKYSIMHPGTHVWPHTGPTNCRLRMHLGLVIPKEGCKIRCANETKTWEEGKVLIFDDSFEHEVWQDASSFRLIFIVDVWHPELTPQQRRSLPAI
Assay: SPE-MS AspH inhibition assay (hFX-CP101-119 substrate hydroxylation)
Type: biochemical
Conditions: AspH-inhibitor screening, Plate 1-duplicate
Measurement label: Plate 1-duplicate (% inhibition) (%)

[[record]]
compound = "CC(C)NC[C@@H](C(=O)N1CCN(c2ncnc3c2[C@H](C)C[C@H]3O)CC1)c1ccc(Cl)cc1"
value_observed = 4.48

[[record]]
compound = "COCCNCc1ccc(-c2cc3nccc(Oc4ccc(NC(=S)NC(=O)Cc5ccc(F)cc5)cc4F)c3s2)nc1"
value_observed = 67.97

[[record]]
compound = "C=C1C[C@@H]2[C@H](CC[C@]3(C)C(=O)CC[C@@H]23)[C@@]2(C)C=CC(=O)C=C12"
value_observed = 2.16

[[record]]
compound = "CNC(=O)c1cc(Oc2ccc(NC(=O)Nc3ccc(Cl)c(C(F)(F)F)c3)c(F)c2)ccn1"
value_observed = 53.45

[[record]]
compound = "Cc1[nH]c2ccccc2c1CCNCc1ccc(/C=C/C(=O)NO)cc1"
value_observed = 37.62

[[record]]
compound = "COc1cc2nccc(Oc3ccc(NC(=O)Nc4cc(C)on4)c(Cl)c3)c2cc1OC"
value_observed = 0.70

[[record]]
compound = "C[C@@H](Oc1cc(-c2cnn(C3CCNCC3)c2)cnc1N)c1c(Cl)ccc(F)c1Cl [PF-2341066 (Crizotinib)]"
value_observed = -4.98


Ref: paper PMC7588595
